Test system: Saccharomyces cerevisiae ZIM 2558 (RPMI)
assayExplanation: Bliss independence sum of statistically significant ΔE (measured minus predicted growth inhibition) over checkerboard surface (fraction (sum of ΔE; 1 = 100%)); higher = more synergy
cond: temperature: 37 °C
measuredProperty: Bliss independence sum
Give bare numbers.

Solved cases below.
(Q) Param readout= Bliss independence sum; system= Saccharomyces cerevisiae ZIM 2558 (RPMI); entry= COc1c(C)c2c(c(O)c1C/C=C(\C)CCC(=O)O)C(=O)OC2 [mycophenolic acid] + CCC(C)n1ncn(-c2ccc(N3CCN(c4ccc(OCC5COC(Cn6cncn6)(c6ccc(Cl)cc6Cl)O5)cc4)CC3)cc2)c1=O [itraconazole] ; returns value.
(A) -4.07

(Q) Hi! What's the reported Bliss independence sum for CC1(C)S[C@@H]2[C@H](NC(=O)[C@H](N)c3ccc(O)cc3)C(=O)N2[C@H]1C(=O)O [amoxicillin] + OC(Cn1cncn1)(Cn1cncn1)c1ccc(F)cc1F [fluconazole] on Saccharomyces cerevisiae ZIM 2558 (RPMI)?
(A) 1.93

(Q) Please tell me: Bliss independence sum of COc1c(C)c2c(c(O)c1C/C=C(\C)CCC(=O)O)C(=O)OC2 [mycophenolic acid] + C[C@@H]1[C@H](O)[C@@H](C)/C=C/C=C/C=C/C=C/C=C/C=C/C=C/[C@H](O[C@@H]2O[C@H](C)[C@@H](O)[C@H](N)[C@@H]2O)C[C@@H]2O[C@](O)(C[C@@H](O)C[C@@H](O)[C@H](O)CC[C@@H](O)C[C@@H](O)CC(=O)O[C@H]1C)C[C@H](O)[C@H]2C(=O)O [amphotericin B] , system Saccharomyces cerevisiae ZIM 2558 (RPMI)?
(A) 3.61

Continue with the compound presented below.
(Q) Enter reported Bliss independence sum observed with Saccharomyces cerevisiae ZIM 2558 (RPMI) for CC1(C)S[C@@H]2[C@H](NC(=O)[C@H](N)c3ccc(O)cc3)C(=O)N2[C@H]1C(=O)O [amoxicillin] + CCC(C)n1ncn(-c2ccc(N3CCN(c4ccc(OCC5COC(Cn6cncn6)(c6ccc(Cl)cc6Cl)O5)cc4)CC3)cc2)c1=O [itraconazole]
(A) 0.394
